tested on: KLE; test: cells; type: functional, cell-based, Homo sapiens; details: Homo sapiens, KLE;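 also: growth inhibition of human KLE cells, read out with a cell viability assay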
Description: SANGER: Inhibition of human KLE cell growth in a cell viability assay.
pIC50: −log10 of the molar value.
readout: pIC50

>  <compound>
Cn1cc(C2=C(c3ccc(Cl)cc3Cl)C(=O)NC2=O)c2ccccc21 [SB-216763]

>  <value_measured>
< 5.00

$$$$
>  <compound>
Cn1cncc1[C@@](N)(c1ccc(Cl)cc1)c1ccc2c(c1)c(-c1cccc(Cl)c1)cc(=O)n2C [TIPIFARNIB]

>  <value_measured>
5.05

$$$$
>  <compound>
O=C(c1cc(Cc2n[nH]c(=O)c3ccccc23)ccc1F)N1CCN(C(=O)C2CC2)CC1 [OLAPARIB]

>  <value_measured>
< 5.30

$$$$
>  <compound>
COc1ccc(C2=N[C@@H](c3ccc(Cl)cc3)[C@@H](c3ccc(Cl)cc3)N2C(=O)N2CCNC(=O)C2)c(OC(C)C)c1 [NUTLIN-3]

>  <value_measured>
< 5.10

$$$$
>  <compound>
COc1ccc(-c2ccc3c(N4CCOC[C@@H]4C)nc(N4CCOC[C@@H]4C)nc3n2)cc1CO [AZD-8055]

>  <value_measured>
< 5.70

$$$$

For every item below, please supply its pIC50.
1. CN(Cc1cnc2nc(N)nc(N)c2n1)c1ccc(C(=O)N[C@@H](CCC(=O)O)C(=O)O)cc1 [METHOTREXATE]
2. CO[C@H]1C[C@@H]2CC[C@@H](C)[C@@](O)(O2)C(=O)C(=O)N2CCCC[C@H]2C(=O)O[C@H]([C@H](C)C[C@@H]2CC[C@@H](O)[C@H](OC)C2)CC(=O)[C@H](C)/C=C(\C)[C@@H](O)[C@@H](OC)C(=O)[C@H](C)C[C@H](C)/C=C/C=C/C=C/1C [SIROLIMUS]
3. COc1cc([C@@H]2c3cc4c(cc3[C@@H](O[C@@H]3O[C@@H]5CO[C@@H](C)O[C@H]5[C@H](O)[C@H]3O)[C@H]3COC(=O)[C@H]23)OCO4)cc(OC)c1O [ETOPOSIDE]
4. CN(C)C/C=C/C(=O)Nc1cc2c(Nc3ccc(F)c(Cl)c3)ncnc2cc1O[C@H]1CCOC1 [AFATINIB]

< 6.70
< 7.00
4.99
< 6.30

* * *

Hi there, I'd appreciate the recorded IC50 for every entry that follows.
system: MDA-MB-415; assay: cells; assay type: functional, cell-based; details: Homo sapiens

Give IC50 for each listed item.
1. CN(c1ncccc1CNc1nc(Nc2ccc3c(c2)CC(=O)N3)ncc1C(F)(F)F)S(C)(=O)=O
2. O=C1N=C(NCc2cccs2)S/C1=C\c1ccc2ncccc2c1

1: > 2.56 µM; 2: > 5 µM

State the recorded IC50 for every item in the following list.
1. O=c1cc(-c2cccc3c2Sc2ccccc2S3)oc(N2CCOCC2)c1
2. COc1cc(F)c(F)c(Nc2ccc(I)cc2F)c1NS(=O)(=O)C1(CC(O)CO)CC1 (stereo not given)
3. CN(Cc1cnc2nc(N)nc(N)c2n1)c1ccc(C(=O)N[C@@H](CCC(=O)O)C(=O)O)cc1 [METHOTREXATE]

1. > 10 µM
2. > 5 µM
3. > 0.2 µM

* * *

Would you kindly list IC50 for each of these molecules?
test system: NCI-H2087; experiment: cells; assay type: functional, cell-based, Homo sapiens; details: Homo sapiens, NCI-H2087;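 also: growth inhibition determined with a cell viability readout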
Description: SANGER: Inhibition of human NCI-H2087 cell growth in a cell viability assay.

Example entries begin here.
>  <molecule>
COc1cc(F)c(F)c(Nc2ccc(I)cc2F)c1NS(=O)(=O)C1(CC(O)CO)CC1 (stereo not given)

>  <IC50>
2420 nM

$$$$
>  <molecule>
C=CCc1cccc(/C=N/NC(=O)CN2CCN(Cc3ccccc3)CC2)c1O

>  <IC50>
> 2560 nM

$$$$
>  <molecule>
COc1cc([C@@H]2c3cc4c(cc3[C@@H](O[C@@H]3O[C@@H]5CO[C@@H](C)O[C@H]5[C@H](O)[C@H]3O)[C@H]3COC(=O)[C@H]23)OCO4)cc(OC)c1O [ETOPOSIDE]

>  <IC50>
763 nM

$$$$
>  <molecule>
Cc1cnc(-c2cnc(NCCNc3ccc(C#N)cn3)nc2-c2ccc(Cl)cc2Cl)[nH]1

>  <IC50>
> 2560 nM

$$$$
>  <molecule>
CN(C)C/C=C/C(=O)Nc1cc2c(Nc3ccc(F)c(Cl)c3)ncnc2cc1O[C@H]1CCOC1

>  <IC50>
> 500 nM

$$$$

Kindly give each listed record's IC50.
1. O=c1cc(-c2cccc3c2Sc2ccccc2S3)oc(N2CCOCC2)c1
2. Cc1cc([C@@H](C)Nc2ccccc2C(=O)O)c2nc(N3CCOCC3)cc(=O)n2c1
3. CN(c1ncccc1CNc1nc(Nc2ccc3c(c2)CC(=O)N3)ncc1C(F)(F)F)S(C)(=O)=O
4. Nc1ccn([C@@H]2O[C@H](CO)[C@@H](O)[C@@H]2O)c(=O)n1
5. Cn1cc(C2=C(c3ccc(Cl)cc3Cl)C(=O)NC2=O)c2ccccc21

> 10000 nM
> 5120 nM
> 2560 nM
> 2000 nM
> 10000 nM
